Test system: Vero cells
Assay: In vitro cytotoxicity against normal cell line
Format: cell-based
Settings: Chlorocebus sabaeus, Vero
QUANTITY: IC50 (µM)
Supply the numeric figure in µM, leaving out any unit text.

Incoming: Give the measured IC50 of CCCNc1nc2ccccc2c2nnc(C(F)(F)F)n12 .
Outgoing: 63.4

---

System: Activated Calf Thymus DNA
Test: DNA/methyl green assay (DNA intercalation)
Assay type: binding
Conditions: supplement curve fit; read-out: IC50 (best-fit value, DNA/Topo-II Inhibition (%) curve)
Protocol: The most promising members (13a, 14a, 16, 17, 18, 19, and 20) were further investigated for their binding affinity against DNA. […] The results of DNA-binding affinities were reported in Table 1 as IC50 values calculated from the concentration-inhibition response curve. Activated Calf Thymus DNA (Merk, Germany) was treated with methyl green (Merk, Germany), then the synthesized compounds were applied to displace the methyl green dye, producing equivalent color. […]
QUANTITY: IC50 (µM)
Supply the numeric figure in µM, leaving out any unit text.

Incoming: Give the measured IC50 of COc1cccc2c1C(=O)c1c(O)c3c(c(O)c1C2=O)C[C@@](O)(C(=O)CO)C[C@@H]3O[C@H]1C[C@H](N)[C@H](O)[C@H](C)O1 [Doxorubicin, reference compound] .
Outgoing: 5.64

Data provenance: paper PMC9886266
